assay-name: In vitro stability in rat plasma
Format: in vitro ADME
cond: male, Sprague-Dawley, rat, rat plasma; read-out: Percentage of remained
property: remaining at 3 h, 2000 ng/mL

q: Sample Ac-DGKSKGIAYIEFK-NH2 [P3V8] — what was its remaining at 3 h, 2000 ng/mL?
a: < 0.6%

###

assay-name: In vitro stability in rat brain homogenate
Assay type: in vitro ADME
cond: male, Sprague-Dawley; rat brain homogenate, 1000 ng/mL, 37 °C, incubation 3 hr, LC/MS/MS; mean ± S.E.M. of 5; LLOQ 12.5 ng/mL P3V8; read-out: Percentage of remained
Description: Sprague-Dawley (SD) rats (male, 180-200 g) were supplied by the Laboratory Animal Services Centre at The Chinese University of Hong Kong. All animal studies were conducted under the approval of the Animal Ethics Committee of The Chinese University of Hong Kong, and were performed in accordance with relevant guidelines and regulations. Blank rat brain homogenate was prepared by ultrasonic probe homogenization (Micoson XL-2000, Misonix, […], USA) of brains collected from the control rats. […]
property: remaining at 3 h, 1000 ng/mL

q: Fill in: remaining at 3 h, 1000 ng/mL of Ac-DGKSKGIAYIEFK-NH2 [P3V8] is ___
a: < 1.3%

###

assay-name: In vitro stability in rat brain homogenate
Format: in vitro ADME
cond: male, Sprague-Dawley; rat brain homogenate, 2000 ng/mL, 37 °C, incubation 3 hr, LC/MS/MS; mean ± S.E.M. of 5; LLOQ 12.5 ng/mL P3V8; read-out: Percentage of remained
property: remaining at 3 h, 2000 ng/mL

q: So what's the measured remaining at 3 h, 2000 ng/mL for this one? Ac-DGKSKGIAYIEFK-NH2 [P3V8]
a: < 0.6%

###

assay-name: In vitro stability in rat plasma
Type: in vitro ADME
cond: male, Sprague-Dawley; rat plasma, 500 ng/mL, 37 °C, incubation 1 hr, LC/MS/MS; mean ± S.E.M. of 5; LLOQ 12.5 ng/mL P3V8; read-out: Percentage of remained
property: remaining at 1 h, 500 ng/mL

q: Which measured remaining at 1 h, 500 ng/mL value corresponds to Ac-DGKSKGIAYIEFK-NH2 [P3V8] ?
a: < 2.5%

###

assay-name: In vitro stability in rat plasma
Format: in vitro ADME
cond: male, Sprague-Dawley; rat plasma, 500 ng/mL, 37 °C, incubation 1 hr, LC/MS/MS; mean ± S.E.M. of 5; LLOQ 12.5 ng/mL P3V8; read-out: Percentage of remained
Residues, ends and D or L forms follow the SMILES beside them. *: point of attachment. Palmitoyl = CCCCCCCCCCCCCCCC(=O)*
property: remaining at 1 h, 500 ng/mL (%)
Write the answer as a number in %, unit excluded.

q: Look at this molecule and give its reported remaining at 1 h, 500 ng/mL. CCCCCCCCCCCCCCCC(=O)N[C@@H](CC(=O)O)C(=O)NCC(=O)N[C@@H](CCCCN)C(=O)N[C@@H](CO)C(=O)N[C@@H](CCCCN)C(=O)NCC(=O)N[C@H](C(=O)N[C@@H](C)C(=O)N[C@@H](Cc1ccc(O)cc1)C(=O)N[C@H](C(=O)N[C@@H](CCC(=O)O)C(=O)N[C@@H](Cc1ccccc1)C(=O)N[C@@H](CCCCN)C(N)=O)[C@@H](C)CC)[C@@H](C)CC [L1P3V8] (Palmitoyl-DGKSKGIAYIEFK-NH2)
a: 88.1

Data provenance is paper PMC5608758.
